These entries and their values trace back to patent US8586603B2.

The compounds listed here are annotated with their selectivity ratio p5-HT2.
target: porcine cortical p5-HT2 serotonin receptor (Sus scrofa); construct: membrane homogenates prepared from porcine striatal or cortical tissue; from tissue; host or cells: porcine cortex; assay: Receptor binding assay, [3H]ketanserin competition, porcine cortical membranes; conditions: vs p5-HT1a
Sequence (P50129 whole entry): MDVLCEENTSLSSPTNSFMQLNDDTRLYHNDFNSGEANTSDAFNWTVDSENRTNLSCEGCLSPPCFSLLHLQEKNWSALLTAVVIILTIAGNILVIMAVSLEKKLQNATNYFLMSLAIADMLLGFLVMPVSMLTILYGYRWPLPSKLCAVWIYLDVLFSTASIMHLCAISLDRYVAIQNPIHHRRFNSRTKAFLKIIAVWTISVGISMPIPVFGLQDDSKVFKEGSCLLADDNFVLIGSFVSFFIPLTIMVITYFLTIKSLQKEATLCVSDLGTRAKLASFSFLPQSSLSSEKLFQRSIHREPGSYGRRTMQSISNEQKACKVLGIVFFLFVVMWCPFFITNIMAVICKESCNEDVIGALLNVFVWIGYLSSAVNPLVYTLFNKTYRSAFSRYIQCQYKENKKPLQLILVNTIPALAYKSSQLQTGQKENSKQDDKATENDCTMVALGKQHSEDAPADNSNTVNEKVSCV
metric: selectivity ratio p5-HT2

> print(dat)
                                   compound                    metric  result
1     CCCN(CCc1cccs1)[C@@H]1CCc2cccc(O)c2C1  selectivity ratio p5-HT2   4 800
2  CCCN(CCc1ccc(O)cc1)C1CCc2cccc(O)c2C1 (centres unmarked)  selectivity ratio p5-HT2   6 000
3  CCCN(CCc1cccs1)C1CCc2cccc(O)c2C1 (centres unmarked)  selectivity ratio p5-HT2   4 900
4  CCCN(CCc1ccccc1)C1CCc2cccc(O)c2C1 (centres unmarked)  selectivity ratio p5-HT2   9 400
5  CCCN(CCc1cc2ccc1CCc1ccc(cc1)CC2)C1CCc2cccc(O)c2C1 (centres unmarked)  selectivity ratio p5-HT2     140
6  CCCN(CCc1cc(C)ccc1C)C1CCc2cccc(O)c2C1 (centres unmarked)  selectivity ratio p5-HT2   1 000
7  CCCN(CCc1cc2ccc1CCc1ccc(cc1)CC2)C1CCc2cccc(OC)c2C1 (centres unmarked)  selectivity ratio p5-HT2     150
8      CCCN(CCc1cccs1)[C@H]1CCc2cccc(O)c2C1  selectivity ratio p5-HT2   3 100

* * *

molecular target: porcine striatal pD1 dopamine receptor (Sus scrofa); construct: membrane homogenates prepared from porcine striatal or cortical tissue; from tissue; host or cells: porcine striatum; assay: Receptor binding assay, [3H]SCH 23390 competition, porcine striatal membranes; conditions: means of 2-8 individual experiments each done as triplicate
Sequence (P50130 whole entry): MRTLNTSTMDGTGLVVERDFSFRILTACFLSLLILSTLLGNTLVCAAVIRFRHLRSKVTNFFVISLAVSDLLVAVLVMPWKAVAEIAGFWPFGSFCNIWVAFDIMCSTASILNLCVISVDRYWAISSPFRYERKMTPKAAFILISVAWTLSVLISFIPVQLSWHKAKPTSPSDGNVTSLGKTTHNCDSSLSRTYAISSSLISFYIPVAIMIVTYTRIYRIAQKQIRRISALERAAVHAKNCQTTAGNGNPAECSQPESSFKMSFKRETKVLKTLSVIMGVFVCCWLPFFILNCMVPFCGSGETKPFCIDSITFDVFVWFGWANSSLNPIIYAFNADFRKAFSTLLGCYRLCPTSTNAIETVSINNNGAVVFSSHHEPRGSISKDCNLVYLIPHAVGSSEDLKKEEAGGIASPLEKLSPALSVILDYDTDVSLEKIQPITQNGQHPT
So basically: is Ki under 7 µM? Then 1. Not under? Then 0.

> print(dat)
                                    molecule  class.assignment
 1     CCCN(CCc1cccs1)[C@@H]1CCc2cccc(O)c2C1                 0
 2  CCCN(CCc1cc2ccc1CCc1ccc(cc1)CC2)C1CCc2cccc(O)c2C1 (centres unmarked)                 1
 3      CCCN(CCc1cccs1)[C@H]1CCc2cccc(O)c2C1                 1
 4  CCCN(CCc1cccs1)C1CCc2cccc(OC)c2C1 (centres unmarked)                 1
 5  CCCN(CCc1ccc(O)cc1)C1CCc2cccc(O)c2C1 (centres unmarked)                 1
 6  CCCN(CCc1cc(C)ccc1C)C1CCc2cccc(OC)c2C1 (centres unmarked)                 1
 7  CCCN(CCc1cc2ccc1CCc1ccc(cc1)CC2)C1CCc2cccc(OC)c2C1 (centres unmarked)                 1
 8  CCCN(CCc1cc(C)ccc1C)C1CCc2cccc(O)c2C1 (centres unmarked)                 1
 9  CCCN(CCC)C1CCc2cccc(O)c2C1 (stereo not drawn) [R-(+)-8-OH-DPAT, reference compound]                 1
10  CCCN(CCc1ccccc1)C1CCc2cccc(O)c2C1 (centres unmarked)                 0
11  CCCN(CCc1cccs1)C1CCc2cccc(O)c2C1 (centres unmarked)                 0
